Provide the reported Number of colonies of each item.
- System: Salmonella typhimurium TA100
- assay.summary: Mutagenicity (Ames test)
- Type: cell-based
- stated.conditions: ½ MIC, ± SD
- Procedure: Two reference strains of Salmonella Typhimurium TA98 and Salmonella Typhimurium TA100, deficient in histidine synthesis, were used for this study according to the method proposed by Ames et al. with modifications. […] Plates were incubated for 48 h at 37 °C, and then colonies were counted. The mutagenicity ratio (MR), the ratio of the number of revertants grown in the presence of the test compound to the number of spontaneously occurring revertants (negative control), was calculated. […]
One number for each entry.

>>> observed_value("CCCCCCCCCCCCCC(=O)N(C)CCC[N+](C)(C)C.[Br-]")
147.5

Please look at the items below and tell me Number of colonies for each one, in order.
1. CC(=O)[O-].CCCCCCCCCCCC(=O)N(C)CCC[N+](C)(C)C
2. CC(=O)[O-].CCCCCCCCCCCCCC(=O)N(C)CCC[N+](C)(C)C
3. CCCCCCCCCCCCCCN(C)CCC[N+](C)(C)C.COC(=O)[O-]
4. CCCCCCCCCCCCCCCCN(C)CCC[N+](C)(C)C.COC(=O)[O-]
5. CCCCCCCCCCCCN(C)CCC[N+](C)(C)C.COC(=O)[O-]

1. 304
2. 189
3. 310
4. 306.7
5. 264

Please look at the items below and tell me Number of colonies for each one, in order.
1. CCCCCCCCCCCC(=O)N(C)CCC[N+](C)(C)C.[Br-]
2. CC(=O)[O-].CCCCCCCCCCCCCCCC(=O)N(C)CCC[N+](C)(C)C
3. CCCCCCCCCCCCCCCC(=O)N(C)CCC[N+](C)(C)C.[Br-]

1. 146
2. 132.5
3. 134

====

- System: Salmonella typhimurium TA100
- assay.summary: Mutagenicity (Ames test)
- Assay type: cell-based
- stated.conditions: ¼ MIC, ± SD
Please enter YES where Number of colonies is greater than or equal to 200, and NO where it is lower.

>>> class("CC(=O)[O-].CCCCCCCCCCCCCCCC(=O)N(C)CCC[N+](C)(C)C")
"NO"

Please check the record `CCCCCCCCCCCCCCCCN(C)CCC[N+](C)(C)C.COC(=O)[O-]` and state if its Number of colonies is at or above 200.
YES

Please check the record `CC(=O)[O-].CCCCCCCCCCCC(=O)N(C)CCC[N+](C)(C)C` and state if its Number of colonies is at or above 200.
YES

Please check the record `CCCCCCCCCCCC(=O)N(C)CCC[N+](C)(C)C.[Br-]` and state if its Number of colonies is at or above 200.
NO

Please check the record `CCCCCCCCCCCCN(C)CCC[N+](C)(C)C.COC(=O)[O-]` and state if its Number of colonies is at or above 200.
YES

Please check the record `CCCCCCCCCCCCCCCC(=O)N(C)CCC[N+](C)(C)C.[Br-]` and state if its Number of colonies is at or above 200.
NO

Please check the record `CCCCCCCCCCCCCC(=O)N(C)CCC[N+](C)(C)C.[Br-]` and state if its Number of colonies is at or above 200.
NO

Please check the record `CCCCCCCCCCCCCCN(C)CCC[N+](C)(C)C.COC(=O)[O-]` and state if its Number of colonies is at or above 200.
YES

====

- Tested on: Salmonella typhimurium TA100
- assay.summary: Mutagenicity (Ames test)
- Format: cell-based
- stated.conditions: ¼ MIC
Provide the reported Mutagenicity index of each item.
Give bare numbers.

Please look at the items below and tell me Mutagenicity index for each one, in order.
1. CC(=O)[O-].CCCCCCCCCCCC(=O)N(C)CCC[N+](C)(C)C
2. CCCCCCCCCCCC(=O)N(C)CCC[N+](C)(C)C.[Br-]
3. CCCCCCCCCCCCCCCCN(C)CCC[N+](C)(C)C.COC(=O)[O-]
4. CCCCCCCCCCCCCC(=O)N(C)CCC[N+](C)(C)C.[Br-]
5. CCCCCCCCCCCCCCN(C)CCC[N+](C)(C)C.COC(=O)[O-]

1: 0.94; 2: 1.41; 3: 1.09; 4: 1.24; 5: 1.17

====

Provide the reported Number of colonies of each item.
- Test system: Salmonella typhimurium TA98
- assay.summary: Mutagenicity (Ames test)
- Type: cell-based
- stated.conditions: ½ MIC, ± SD
One number for each entry.

Consider the worked cases shown below.
>>> observed_value("CCCCCCCCCCCCCCN(C)CCC[N+](C)(C)C.COC(=O)[O-]")
21.7
>>> observed_value("CC(=O)[O-].CCCCCCCCCCCC(=O)N(C)CCC[N+](C)(C)C")
20.8
>>> observed_value("CCCCCCCCCCCCCCCCN(C)CCC[N+](C)(C)C.COC(=O)[O-]")
4.3
>>> observed_value("CCCCCCCCCCCC(=O)N(C)CCC[N+](C)(C)C.[Br-]")
50.5
>>> observed_value("CCCCCCCCCCCCN(C)CCC[N+](C)(C)C.COC(=O)[O-]")
21
>>> observed_value("CC(=O)[O-].CCCCCCCCCCCCCC(=O)N(C)CCC[N+](C)(C)C")
25.7
>>> observed_value("CCCCCCCCCCCCCCCC(=O)N(C)CCC[N+](C)(C)C.[Br-]")
47

For the molecule `CC(=O)[O-].CCCCCCCCCCCCCCCC(=O)N(C)CCC[N+](C)(C)C` , give its measured Number of colonies value.
28.3

====

Provide the reported Minimal inhibitory concentration (MIC) of each item.
- Test system: E. coli ATCC 11229
- assay.summary: MIC/MBC microdilution
- Assay type: cell-based, Escherichia coli
- stated.conditions: E. coli ATCC 11229; 24 h, 37 °C; >90% growth inhibition
Marks after values point to notes of the source that are not given here.

Consider the worked cases shown below.
>>> observed_value("CC(=O)[O-].CCCCCCCCCCCCCC(=O)N(C)CCC[N+](C)(C)C [AcC14]")
"320 *320 µM"
>>> observed_value("CCCCCCCCCCCCCCCCN(C)CCC[N+](C)(C)C.COC(=O)[O-] [MeC16]")
"320 *320 µM"
>>> observed_value("CCCCCCCCCCCCCCN(C)CCC[N+](C)(C)C.COC(=O)[O-] [MeC14]")
"320 *320 µM"
>>> observed_value("CCCCCCCCCCCCCC(=O)N(C)CCC[N+](C)(C)C.[Br-] [BrC14]")
"> 1280 * > 1280 µM"

Please look at the items below and tell me Minimal inhibitory concentration (MIC) for each one, in order.
1. CCCCCCCCCCCC(=O)N(C)CCC[N+](C)(C)C.[Br-] [BrC12]
2. CCCCCCCCCCCCN(C)CCC[N+](C)(C)C.COC(=O)[O-] [MeC12]

1: 1280 *1280 µM; 2: 640 *640 µM

====

- assay.summary: Critical micelle concentration by conductometric measurements
- Format: physicochemical
- stated.conditions: aqueous solution, 25 °C
measured.attribute: CMC
Mention the unit after the number when you answer.

Consider the worked cases shown below.
>>> observed_value("CCCCCCCCCCCCCC(=O)N(C)CCC[N+](C)(C)C.[Br-] [BrC14]")
"0.0025 mol/L"
>>> observed_value("CC(=O)[O-].CCCCCCCCCCCCCC(=O)N(C)CCC[N+](C)(C)C [AcC14]")
"0.0054 mol/L"
>>> observed_value("CCCCCCCCCCCC(=O)N(C)CCC[N+](C)(C)C.[Br-] [BrC12]")
"0.0086 mol/L"

Now examine the next entry.
For the compound CCCCCCCCCCCCN(C)CCC[N+](C)(C)C.COC(=O)[O-] [MeC12] , give its measured CMC value.
0.014 mol/L

====

Provide the reported Minimal bactericidal concentration (*MBC) of each item.
- Tested on: S. epidermidis SI8
- assay.summary: MIC/MBC microdilution
- Assay type: cell-based, Staphylococcus epidermidis
- stated.conditions: 99.9% reduction

>>> observed_value("CCCCCCCCCCCCCCCC(=O)N(C)CCC[N+](C)(C)C.[Br-] [BrC16]")
"10 *10 µM"
>>> observed_value("CCCCCCCCCCCC(=O)N(C)CCC[N+](C)(C)C.[Br-] [BrC12]")
"640 *640 µM"
>>> observed_value("CCCCCCCCCCCCCCCCN(C)CCC[N+](C)(C)C.COC(=O)[O-] [MeC16]")
"10 *10 µM"
>>> observed_value("CCCCCCCCCCCCCC(=O)N(C)CCC[N+](C)(C)C.[Br-] [BrC14]")
"160 *160 µM"

Now examine the next entry.
For the compound CCCCCCCCCCCCCCN(C)CCC[N+](C)(C)C.COC(=O)[O-] [MeC14] , give its measured Minimal bactericidal concentration (*MBC) value.
40 *40 µM
